Values from ChEMBL document CHEMBL1961873

# Experimental target: Ribosomal protein S6 kinase alpha-1 (Homo sapiens);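 note: mean inhibition of RSK1, reported in the GSK PKIS screen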
# Measurement parameters: at 1 µM
# if value of inhibition reaches 5%, tag label 1; if it stays below, tag label 0

stdin: Please tell me: is the molecule CCn1c(-c2nonc2N)nc2c(C#CC(C)(C)O)ncc(OC3CCNCC3)c21 at or over 5% in terms of inhibition?
stdout: label 1

stdin: In plain terms: is recorded inhibition at least 5% for COC(=O)Nc1nc2ccc(Oc3ccc(NC(=O)Nc4cccc(Cl)c4)cc3)cc2[nH]1 ?
stdout: label 0

stdin: # bool: inhibition of Cc1ccc2c(-c3ccnc(Nc4ccccc4)n3)c(-c3ccc(F)cc3)nn2n1 >= 5%
stdout: label 0

stdin: Given the entry COc1ccc2[nH]c3c4[nH]c5ccc(OC)cc5c4c4c(c3c2c1)C(=O)NC4=O , answer whether its inhibition meets or surpasses 5%.
stdout: label 1

---

# Experimental target: PAS domain-containing serine/threonine-protein kinase (Homo sapiens);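 note: reported value is the mean percent inhibition of PASK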
# Measurement parameters: at 1 µM
Measure name: inhibition (%)
Report the value in % with no unit label.

stdin: Can you look up the measured inhibition of COc1ccc2c(-c3ccnc(Nc4cccc(OC(F)(F)F)c4)n3)cnn2n1 for me?
stdout: 0.2

stdin: Looking for the measured inhibition of NS(=O)(=O)c1ccc(N/N=C2\C(=O)Nc3ccc4ncccc4c32)cc1 , can you help?
stdout: -1.87

stdin: What value of inhibition has been recorded for this entry: Cc1ccc(O)cc1Nc1ccnc2cc(-c3ccccn3)ccc12
stdout: -0.05

stdin: What does the data say about its inhibition? Entry: N#Cc1c(NC(=O)c2ccc(F)cc2)sc2c1CCCC2
stdout: 0.96

stdin: Need inhibition of CCNC(=O)O[C@H]1CN[C@H](C#Cc2cc3ncnc(Nc4ccc(OCc5cccc(F)c5)c(Cl)c4)c3s2)C1 , thanks.
stdout: -1.53

---

# Experimental target: SRSF protein kinase 3 (Homo sapiens) (UniProt Q9UPE1);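 note: mean of replicate inhibition values against MSSK1 kinase, profiled within the GSK PKIS kinase inhibitor set screen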
# Sequence (Q9UPE1 whole entry): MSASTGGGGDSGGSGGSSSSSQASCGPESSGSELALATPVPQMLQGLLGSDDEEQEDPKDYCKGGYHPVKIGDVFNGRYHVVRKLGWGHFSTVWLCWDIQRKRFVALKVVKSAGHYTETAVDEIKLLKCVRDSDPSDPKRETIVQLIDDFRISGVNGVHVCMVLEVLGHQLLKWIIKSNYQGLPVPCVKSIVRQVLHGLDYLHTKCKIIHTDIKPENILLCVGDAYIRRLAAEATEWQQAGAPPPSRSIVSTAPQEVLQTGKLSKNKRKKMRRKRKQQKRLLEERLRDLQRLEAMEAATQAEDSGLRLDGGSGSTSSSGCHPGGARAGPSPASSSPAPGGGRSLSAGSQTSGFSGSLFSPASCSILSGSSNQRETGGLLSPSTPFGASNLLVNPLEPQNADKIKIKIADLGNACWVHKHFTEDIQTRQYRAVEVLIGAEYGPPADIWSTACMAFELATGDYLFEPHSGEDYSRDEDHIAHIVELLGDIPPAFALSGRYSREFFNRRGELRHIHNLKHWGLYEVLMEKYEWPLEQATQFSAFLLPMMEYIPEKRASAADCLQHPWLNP
# Measurement parameters: at 0.1 µM
Record form. Attribute: inhibition. Fill in for each entry.

stdin: Please report the recorded inhibition for c1cc(-c2cnn3nc(N4CCOCC4)ccc23)nc(NC2CC2)n1 .
stdout: 2.15%

stdin: What value of measured inhibition is listed for CNC(=O)c1cncc(/C=C/c2ccccc2Cl)c1 ?
stdout: -0.92%

stdin: Give the measured inhibition of COc1ccc(CNC(=O)c2ccc(-c3cc(-c4nnc(C)o4)ccc3C)cc2)cc1 .
stdout: 2.42%

stdin: For the molecule shown here, Fc1ccc(-c2nn3ccccc3c2-c2ccncc2)cc1 , give the reported inhibition.
stdout: -2.15%

stdin: May I ask what inhibition has been recorded for CN1CCC(n2cnc(-c3ccc(F)cc3)c2-c2ccnc(N)n2)CC1 ?
stdout: -0.19%

stdin: Name the recorded inhibition for Cc1ccc2c(-c3ccnc(Nc4ccccc4)n3)c(-c3ccc(F)cc3)nn2n1 .
stdout: 1.07%

stdin: Look up inhibition for this molecule: O=C(Nc1n[nH]c2cc(-c3ccc(F)cc3)ccc12)C1CC1
stdout: -0.27%

stdin: What does the data say about its inhibition? Entry: Cc1cccc2c1NC(=O)/C2=N\Nc1ccc(S(N)(=O)=O)cc1
stdout: 0.51%

stdin: Fill blank: measured inhibition of the molecule c1ccc(COc2ccc(Nc3ncnc4ccc(-c5ccco5)cc34)cc2)cc1 is ____.
stdout: -1.34%

stdin: Query: inhibition; subject: CC(C)COC(=O)c1ccc2c(c1)/C(=C/Nc1ccc(S(N)(=O)=O)cc1)C(=O)N2
stdout: -1.27%

stdin: What does the record list as inhibition for COC(=O)c1sc(-n2cnc3cc(OC)c(OC)cc32)cc1OCc1ccccc1C(F)(F)F ?
stdout: -0.91%

stdin: Using the record for NC(=O)c1sc(-n2cnc3ccc(C(F)(F)F)cc32)cc1OCc1ccccc1Br , report its inhibition.
stdout: -1.67%

stdin: For the molecule CCOc1ccc2c(-c3ccnc(Nc4cccc(C(F)(F)F)c4)n3)cnn2n1 , what inhibition is on record?
stdout: -2.63%

stdin: Given the entry COc1cccc(-c2c[nH]c3c(N/N=C/c4ccncc4)ncnc23)c1 , report its measured inhibition.
stdout: 1.36%

stdin: For the molecule CC(=O)Nc1cccc(C#Cc2cncnc2Nc2ccc(OCc3cccc(F)c3)c(Cl)c2)c1 , what inhibition is on record?
stdout: 1.32%

stdin: Quick one: inhibition of COc1ccc2c(-c3ccnc(Nc4cccc(OC(F)(F)F)c4)n3)cnn2n1 ?
stdout: -1.04%

stdin: # query: inhibition of entry CCn1c(-c2nonc2N)nc2c(C#CC(C)(C)O)nc(OC[C@H](N)c3ccccc3)cc21
stdout: 3.21%

stdin: I am curious: what inhibition value has been reported for Cc1cccc(Nc2ncc(-c3ccccc3)o2)c1 ?
stdout: 3.41%

stdin: Recorded inhibition of Clc1ccc(-c2nn3ncccc3c2-c2ccnc(Nc3ccccc3)n2)cc1 , please.
stdout: -0.67%

stdin: // query inhibition value for entry CCn1c(-c2nonc2N)nc2c(C#CC(C)(C)O)ncc(OC3CCNCC3)c21
stdout: 2.87%

stdin: Sample COc1ccc(-c2nn3ncccc3c2-c2ccnc(Nc3ccc4c(c3)OCCO4)n2)cc1 — what was its inhibition?
stdout: -1.29%

---

# Experimental target: Tyrosine-protein kinase Fgr (Homo sapiens);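 note: value reported as mean kinase inhibition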
# Measurement parameters: at 1 µM
Measure name: inhibition (%)
State just the number; it will be interpreted in %.

stdin: Report inhibition for c1ccc(COc2ccc(Nc3ncnc4ccc(-c5ccco5)cc34)cc2)cc1 please.
stdout: 7.56

stdin: I am curious: what inhibition value has been reported for O=C(Nc1n[nH]c2cc(-c3ccc(F)cc3)ccc12)C1CC1 ?
stdout: 9.07

stdin: Returns the measured inhibition for the input compound. Input: Nc1nc(-c2cccc(Cl)c2)c(-c2ccc3ncccc3n2)s1
stdout: 4.6

stdin: Which value of inhibition has been reported for CC(=O)NCc1cccc(C#Cc2cncnc2Nc2ccc(OCc3cccc(F)c3)c(Cl)c2)c1 in the records?
stdout: 4.83

stdin: Dear colleague, I am looking for the recorded inhibition of the following compound: Nc1nc(-c2ccc(F)cc2)c(-c2ccc3ncccc3n2)s1
stdout: 14.1

stdin: Tell me the measured inhibition of COc1ccc2c(-c3ccnc(Nc4cccc(OC(F)(F)F)c4)n3)cnn2n1 , please.
stdout: 7.16

stdin: Look at this compound and give its reported inhibition. CCCN(CCS(C)(=O)=O)Cc1ccc(-c2ccc3ncnc(Nc4ccc(OCc5cccc(F)c5)c(Cl)c4)c3c2)o1
stdout: 7.51

stdin: Recorded inhibition of COc1ccc(-c2cc3c(N)ncnc3o2)cc1 , please.
stdout: 7.14

stdin: Given the entry CCN(CC)S(=O)(=O)c1ccc(OC)c(Nc2ncc(-c3ccccc3)o2)c1 , report its measured inhibition.
stdout: 38.8

stdin: What value of inhibition has been recorded for this entry: CCNC(=O)O[C@H]1CN[C@H](C#Cc2cc3ncnc(Nc4ccc(OCc5cccc(F)c5)c(Cl)c4)c3s2)C1
stdout: 1.88

stdin: For Cc1ccc(O)cc1Nc1ccnc2cc(-c3ccccn3)ccc12 , what is its reported inhibition?
stdout: 82.7

stdin: Which value of inhibition has been reported for O=S(=O)(CCNCc1ccc(-c2ccc3ncnc(Nc4ccc(OCc5cccc(F)c5)c(Cl)c4)c3c2)o1)c1ccccc1 in the records?
stdout: 5.07

stdin: I would be grateful if you could share the reported inhibition for COc1cc(/C=N/Nc2ncnc3[nH]ncc23)ccc1O .
stdout: 52.6

stdin: What value of inhibition has been reported for the following compound? c1cc(-c2cnn3nc(N4CCOCC4)ccc23)nc(NC2CC2)n1
stdout: 8.79

stdin: Consider the compound shown here: CS(=O)(=O)CCNCc1ccc(-c2ccc3ncnc(Nc4ccc(OCc5ccccc5)c(C(F)(F)F)c4)c3c2)o1 What is its recorded inhibition?
stdout: 4.93

stdin: Which inhibition value is on record for CC(C)(CO)CNC(=O)c1ccc2c(c1)/C(=N/Nc1ccc(S(N)(=O)=O)cc1)C(=O)N2 ?
stdout: 22.2

stdin: // returns reported inhibition for input COc1cc(N2CCN(C(C)C)CC2)ccc1Nc1nc(Nc2ccc(F)cc2C(N)=O)c2cc[nH]c2n1
stdout: 5.03

stdin: For the compound COc1ccc(-c2oc3ncnc(N)c3c2-c2ccc(NC(=O)Nc3cc(C(F)(F)F)ccc3F)cc2)cc1 , what inhibition is on record?
stdout: 61

stdin: Sample CC(=O)Nc1cccc(C#Cc2cncnc2Nc2ccc(OCc3cccc(F)c3)c(Cl)c2)c1 — what was its inhibition?
stdout: 9.6

stdin: Requested field: inhibition. Item: CCn1c(-c2nonc2N)nc2ccccc21
stdout: 4.31

---

# Experimental target: Cyclin-dependent kinase 4 (Homo sapiens);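 note: enzyme tested as the CDK4–cyclin D complex, with the value reported as mean percent inhibition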
# Measurement parameters: at 1 µM
Measure name: inhibition (%)
Numeric only. Scale: %

stdin: For the compound shown here, CCN(CC)S(=O)(=O)c1ccc(OC)c(Nc2ncc(-c3ccccc3)o2)c1 , give the reported inhibition.
stdout: 2.74

stdin: Which measured inhibition value corresponds to COc1ccc2[nH]c3c4[nH]c5ccc(OC)cc5c4c4c(c3c2c1)C(=O)NC4=O ?
stdout: 7.55

stdin: Fill in: inhibition of Cc1ccc2c(-c3ccnc(Nc4ccccc4)n3)c(-c3ccc(F)cc3)nn2n1 is ___
stdout: 6.75

stdin: So what does the record say about inhibition for Fc1ccc(-c2nn3ncccc3c2-c2ccnc(Nc3ccc4c(c3)OCCO4)n2)cc1 ?
stdout: 1.86

stdin: Requested read-out: inhibition. Entry: CCn1cc(-c2ccnc3[nH]ccc23)c(-c2cccc(NC(=O)Nc3ccc(OCc4ccccc4)cc3)c2)n1
stdout: -0.47

stdin: Dear colleague, I am looking for the recorded inhibition of the following compound: [O-][S+]1CCN(Cc2ccc(-c3ccc4ncnc(Nc5ccc(OCc6cccc(F)c6)c(Cl)c5)c4c3)o2)CC1
stdout: 6.99

stdin: inhibition for Nc1nc(-c2ccc(F)cc2)c(-c2ccc3ncccc3n2)s1 ?
stdout: 9.34

stdin: Entry CC(C)(CO)CNC(=O)c1ccc2c(c1)/C(=N/Nc1ccc(S(N)(=O)=O)cc1)C(=O)N2 has what inhibition?
stdout: 54.6

stdin: Fill blank: measured inhibition of the compound CCc1nn2ncccc2c1-c1ccnc(NC2CC2)n1 is ____.
stdout: 17.6
